Data provenance is ChEMBL document CHEMBL1800055.

Target protein (sequence): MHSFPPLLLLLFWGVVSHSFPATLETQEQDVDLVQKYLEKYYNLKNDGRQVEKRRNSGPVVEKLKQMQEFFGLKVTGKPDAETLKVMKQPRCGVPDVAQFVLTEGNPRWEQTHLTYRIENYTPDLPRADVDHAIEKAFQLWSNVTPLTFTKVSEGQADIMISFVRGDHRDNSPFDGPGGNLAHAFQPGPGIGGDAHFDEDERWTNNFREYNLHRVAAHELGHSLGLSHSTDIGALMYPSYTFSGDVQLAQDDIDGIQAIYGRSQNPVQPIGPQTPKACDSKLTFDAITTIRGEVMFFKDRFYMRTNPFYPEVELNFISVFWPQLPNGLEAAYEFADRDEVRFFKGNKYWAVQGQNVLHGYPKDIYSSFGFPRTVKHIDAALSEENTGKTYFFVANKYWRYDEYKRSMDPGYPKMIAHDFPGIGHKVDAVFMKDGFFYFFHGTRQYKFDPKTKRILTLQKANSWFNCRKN
pIC50: −log10 of the molar value.
Recorded pIC50 by entry

Past entries and their recorded results:
C#CCN1CCC(C(=O)NO)(S(=O)(=O)c2ccc(Oc3ccc(S(C)(=O)=O)cc3)cc2)CC1 | < 5.00
CC(C)N1CCC(C(=O)NO)(S(=O)(=O)c2ccc(Oc3ccc(OC(F)(F)F)cc3)cc2)CC1 | < 5.00

Query :: Specify measured pIC50 for C#CCN1CCC(C(=O)NO)(S(=O)(=O)c2ccc(Oc3ccc(C(C)C)cc3)cc2)CC1 .
Result :: < 5.00
